Attribution: PubChem BioAssay AID2060488

- Test system: 966289-007-R4-J1-PDC complex spheroid viability
- assay: Anticancer human tumor 966289-007-R4-J1-PDC patient-derived pancreatic adenocarcinoma cell line growth inhibition [GQUAD]
- conditionDetails: second compound 10 µM; first compound 3.16 µM; active compounds read low
Please note: viability, T/C exactly at 0.2% is Not fulfilled. Only values below 0.2% get Fulfilled.

INSERT INTO measurements (compound, classlabel) VALUES
  ('O=c1[nH]cc(F)c(=O)[nH]1 + Cc1cnc(CNC(=O)c2c(=O)c3ccc(N4CCCN(C)CC4)nc3n3c2sc2ccccc23)cn1', 'Not fulfilled'),
  ('CCCS(=O)(=O)Nc1ccc(F)c(C(=O)c2c[nH]c3ncc(-c4ccc(Cl)cc4)cc23)c1F + CN(C)c1ccc(Nc2c3ccc(NC(=O)CCN4CCCC4)cc3nc3cc(NC(=O)CCN4CCCC4)ccc23)cc1', 'Not fulfilled'),
  ('COc1cc(C2c3cc4c(cc3C(OC3OC5COC(C)OC5C(O)C3O)C3COC(=O)C23)OCO4)cc(OC)c1O (stereo not given) + Cc1[nH]c2ccc(F)cc2c1-c1nc2c3cccnc3c3ncccc3c2[nH]1', 'Not fulfilled'),
  ('C#Cc1c(F)ccc2cc(O)cc(-c3ncc4c(N5CC6CCC(C5)N6)nc(OCC56CCCN5CC(F)C6)nc4c3F)c12 (stereo not given) + Cc1cnc(CNC(=O)c2c(=O)c3ccc(N4CCCN(C)CC4)nc3n3c2sc2ccccc23)cn1', 'Fulfilled'),
  ('CC1COCCN1c1cc(-c2ccnn2C)c2ccnc(-c3ccn[nH]3)c2n1 (stereo not given) + Cc1cnc(CNC(=O)c2c(=O)c3ccc(N4CCCN(C)CC4)nc3n3c2sc2ccccc23)cn1', 'Fulfilled');

###

- System: 966289-007-R4-J1-PDC complex spheroid viability
- assay: Anticancer human tumor 966289-007-R4-J1-PDC cell line growth inhibition [GQUAD];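 further: spheroids exposed to the agents for seven days before readout; percent viability relative to DMSO vehicle control wells taken as 100%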
- conditionDetails: second compound 3.16 µM; first compound 0.316 µM; active compounds read low
readoutKind: viability, T/C (%)

INSERT INTO results (compound, unitofmeasurement, reported) VALUES
  ('O=c1[nH]cc(F)c(=O)[nH]1 + Cc1[nH]c2ccc(F)cc2c1-c1nc2c3cccnc3c3ncccc3c2[nH]1', '%', 15.2),
  ('COc1cc(C2c3cc4c(cc3C(OC3OC5COC(C)OC5C(O)C3O)C3COC(=O)C23)OCO4)cc(OC)c1O (stereo not drawn) + Cc1cnc(CNC(=O)c2c(=O)c3ccc(N4CCCN(C)CC4)nc3n3c2sc2ccccc23)cn1', '%', 2.85),
  ('CC(C)(O)C1CCC(Nc2ccc3ncc(-c4cccc(C(F)(F)F)c4)n3n2)CC1 (stereo not drawn) + Cc1cnc(CNC(=O)c2c(=O)c3ccc(N4CCCN(C)CC4)nc3n3c2sc2ccccc23)cn1', '%', 3.14);

###

- Tested on: 966289-007-R4-J1-PDC complex spheroid viability
- assay: Anticancer human tumor 966289-007-R4-J1-PDC cell line growth inhibition [GQUAD];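 further: spheroids exposed to the agents for seven days before readout; percent viability relative to DMSO vehicle control wells taken as 100%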
- conditionDetails: second compound 0.1 µM; first compound 10 µM; active compounds read low
Recorded measurements of viability, T/C, one per entry
readoutKind: viability, T/C (%)

INSERT INTO assay_data (compound, targetentity, readoutkind, unitofmeasurement, reported) VALUES
  ('CC1COCCN1c1cc(C2(S(C)(=N)=O)CC2)nc(-c2ccnc3[nH]ccc23)n1 (stereo unspecified) + CN(C)c1ccc(Nc2c3ccc(NC(=O)CCN4CCCC4)cc3nc3cc(NC(=O)CCN4CCCC4)ccc23)cc1', '966289-007-R4-J1-PDC complex spheroid viability', 'viability, T/C', '%', 12.1),
  ('COc1ncnc(C2CC2)c1-c1ncc2cnn(Cc3ccc(-c4nc(C(F)(F)F)cn4C(C)C)cc3)c2n1 + Cc1[nH]c2ccc(F)cc2c1-c1nc2c3cccnc3c3ncccc3c2[nH]1', '966289-007-R4-J1-PDC complex spheroid viability', 'viability, T/C', '%', 107),
  ('COc1ccc([C@@H](O)c2cc(-c3ncnc4cc(N5CCOCC5)ccc34)c(F)cc2Cl)nn1 + CN(C)c1ccc(Nc2c3ccc(NC(=O)CCN4CCCC4)cc3nc3cc(NC(=O)CCN4CCCC4)ccc23)cc1', '966289-007-R4-J1-PDC complex spheroid viability', 'viability, T/C', '%', 98.1),
  ('CC1COCCN1c1cc(-c2ccnn2C)c2ccnc(-c3ccn[nH]3)c2n1 (stereo unspecified) + Cc1cnc(CNC(=O)c2c(=O)c3ccc(N4CCCN(C)CC4)nc3n3c2sc2ccccc23)cn1', '966289-007-R4-J1-PDC complex spheroid viability', 'viability, T/C', '%', 3.29),
  ('CC1COCCN1c1cc(C2(O)CC3CCC(C2)O3)c2cnn(-c3ccn[nH]3)c2n1 (stereo unspecified) + CN(C)c1ccc(Nc2c3ccc(NC(=O)CCN4CCCC4)cc3nc3cc(NC(=O)CCN4CCCC4)ccc23)cc1', '966289-007-R4-J1-PDC complex spheroid viability', 'viability, T/C', '%', 5.58),
  ('C=CCn1c(=O)c2cnc(Nc3ccc(N4CCN(C)CC4)cc3)nc2n1-c1cccc(C(C)(C)O)n1 + Cc1[nH]c2ccc(F)cc2c1-c1nc2c3cccnc3c3ncccc3c2[nH]1', '966289-007-R4-J1-PDC complex spheroid viability', 'viability, T/C', '%', 2.17),
  ('CC1COCCN1c1cc(-c2ccnn2C)c2ccnc(-c3ccn[nH]3)c2n1 (stereo unspecified) + CN(C)c1ccc(Nc2c3ccc(NC(=O)CCN4CCCC4)cc3nc3cc(NC(=O)CCN4CCCC4)ccc23)cc1', '966289-007-R4-J1-PDC complex spheroid viability', 'viability, T/C', '%', 4.49),
  ('CC1COCCN1c1cc(C2(O)CC3CCC(C2)O3)c2cnn(-c3ccn[nH]3)c2n1 (stereo unspecified) + Cc1cnc(CNC(=O)c2c(=O)c3ccc(N4CCCN(C)CC4)nc3n3c2sc2ccccc23)cn1', '966289-007-R4-J1-PDC complex spheroid viability', 'viability, T/C', '%', 3.82),
  ('CC(C)n1c(=O)n(C)c2cnc3cc(F)c(-c4ccc(OCCCN5CCCCC5)nc4)cc3c21 + CN(C)c1ccc(Nc2c3ccc(NC(=O)CCN4CCCC4)cc3nc3cc(NC(=O)CCN4CCCC4)ccc23)cc1', '966289-007-R4-J1-PDC complex spheroid viability', 'viability, T/C', '%', 88),
  ('COc1cc(C2c3cc4c(cc3C(OC3OC5COC(C)OC5C(O)C3O)C3COC(=O)C23)OCO4)cc(OC)c1O (stereo unspecified) + Cc1[nH]c2ccc(F)cc2c1-c1nc2c3cccnc3c3ncccc3c2[nH]1', '966289-007-R4-J1-PDC complex spheroid viability', 'viability, T/C', '%', 0.65),
  ('C#Cc1c(F)ccc2cc(O)cc(-c3ncc4c(N5CC6CCC(C5)N6)nc(OCC56CCCN5CC(F)C6)nc4c3F)c12 (stereo unspecified) + Cc1cnc(CNC(=O)c2c(=O)c3ccc(N4CCCN(C)CC4)nc3n3c2sc2ccccc23)cn1', '966289-007-R4-J1-PDC complex spheroid viability', 'viability, T/C', '%', 33.9);

###

Consider the following molecules and their measured viability, T/C readings.
- Test system: 966289-007-R4-J1-PDC complex spheroid viability
- assay: Anticancer human tumor 966289-007-R4-J1-PDC cell line growth inhibition [GQUAD];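 further: spheroids exposed to the agents for seven days before readout; percent viability relative to DMSO vehicle control wells taken as 100%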
- conditionDetails: second compound 0.0316 µM; first compound 0.0316 µM; active compounds read low
readoutKind: viability, T/C

INSERT INTO assay_data (molecule, targetentity, reported) VALUES
  ('COc1cccc2c1C(=O)c1c(O)c3c(c(O)c1C2=O)CC(O)(C(=O)CO)CC3OC1CC(N)C(O)C(C)O1 (stereo unspecified) + Cc1cnc(CNC(=O)c2c(=O)c3ccc(N4CCCN(C)CC4)nc3n3c2sc2ccccc23)cn1', '966289-007-R4-J1-PDC complex spheroid viability', '43.6%'),
  ('Cc1[nH]c2ccccc2c1CCNCc1ccc(/C=C/C(=O)NO)cc1 + CN(C)c1ccc(Nc2c3ccc(NC(=O)CCN4CCCC4)cc3nc3cc(NC(=O)CCN4CCCC4)ccc23)cc1', '966289-007-R4-J1-PDC complex spheroid viability', '85.8%'),
  ('COc1ccc([C@@H](O)c2cc(-c3ncnc4cc(N5CCOCC5)ccc34)c(F)cc2Cl)nn1 + CN(C)c1ccc(Nc2c3ccc(NC(=O)CCN4CCCC4)cc3nc3cc(NC(=O)CCN4CCCC4)ccc23)cc1', '966289-007-R4-J1-PDC complex spheroid viability', '104%'),
  ('C=CC(=O)N1CCN(c2nc(=O)n(-c3c(C)ccnc3C(C)C)c3nc(-c4c(O)cccc4F)c(F)cc23)C(C)C1 (stereo unspecified) + Cc1[nH]c2ccc(F)cc2c1-c1nc2c3cccnc3c3ncccc3c2[nH]1', '966289-007-R4-J1-PDC complex spheroid viability', '99.9%'),
  ('O=c1[nH]cc(F)c(=O)[nH]1 + CN(C)c1ccc(Nc2c3ccc(NC(=O)CCN4CCCC4)cc3nc3cc(NC(=O)CCN4CCCC4)ccc23)cc1', '966289-007-R4-J1-PDC complex spheroid viability', '104%'),
  ('O=c1[nH]cc(F)c(=O)[nH]1 + Cc1cnc(CNC(=O)c2c(=O)c3ccc(N4CCCN(C)CC4)nc3n3c2sc2ccccc23)cn1', '966289-007-R4-J1-PDC complex spheroid viability', '110%'),
  ('C#Cc1c(F)ccc2cc(O)cc(-c3ncc4c(N5CC6CCC(C5)N6)nc(OCC56CCCN5CC(F)C6)nc4c3F)c12 (stereo unspecified) + CN(C)c1ccc(Nc2c3ccc(NC(=O)CCN4CCCC4)cc3nc3cc(NC(=O)CCN4CCCC4)ccc23)cc1', '966289-007-R4-J1-PDC complex spheroid viability', '103%'),
  ('CC1COCCN1c1cc(-c2ccnn2C)c2ccnc(-c3ccn[nH]3)c2n1 (stereo unspecified) + Cc1cnc(CNC(=O)c2c(=O)c3ccc(N4CCCN(C)CC4)nc3n3c2sc2ccccc23)cn1', '966289-007-R4-J1-PDC complex spheroid viability', '24.3%'),
  ('CC1COCCN1c1cc(C2(O)CC3CCC(C2)O3)c2cnn(-c3ccn[nH]3)c2n1 (stereo unspecified) + Cc1cnc(CNC(=O)c2c(=O)c3ccc(N4CCCN(C)CC4)nc3n3c2sc2ccccc23)cn1', '966289-007-R4-J1-PDC complex spheroid viability', '17.9%'),
  ('O=C(NO)c1cnc(N2CCN(S(=O)(=O)c3ccc4ccccc4c3)CC2)nc1 + Cc1[nH]c2ccc(F)cc2c1-c1nc2c3cccnc3c3ncccc3c2[nH]1', '966289-007-R4-J1-PDC complex spheroid viability', '100%'),
  ('CC1COCCN1c1cc(C2(S(C)(=N)=O)CC2)nc(-c2ccnc3[nH]ccc23)n1 (stereo unspecified) + CN(C)c1ccc(Nc2c3ccc(NC(=O)CCN4CCCC4)cc3nc3cc(NC(=O)CCN4CCCC4)ccc23)cc1', '966289-007-R4-J1-PDC complex spheroid viability', '106%');
